tested on: PC3 cells; test: PC3 growth inhibition (Cell-titer glo, 72 hours); type: cell-based; conditions: Homo sapiens, PC-3, 72 h, read-out: Percent Viability, PC3 cells, compound concentration 1.667 μM, 72 hours
readout name: viability at 1.667 µM (%)
API: value field is a number in %; no unit string.

Query string: Quick one: viability at 1.667 µM of CCCc1cc(-c2ccc(F)cc2)nc2cc(C(=O)NCCCc3cc[nH]n3)ccc12 ?
Result string: 2

Query string: Quick one: viability at 1.667 µM of CCOc1cc(-c2cn[nH]c2)nc2cc(C(=O)NCCCc3nnc[nH]3)ccc12 ?
Result string: 4

Query string: Quick one: viability at 1.667 µM of CCOc1cc(-c2ccc(F)cc2)nc2cc(C(=O)NCc3nc4ccccc4[nH]3)ccc12 ?
Result string: 94

Query string: Quick one: viability at 1.667 µM of CCOc1cc(-c2ccc(F)c(F)c2)nc2cc(C(=O)NCCCc3ncc[nH]3)ccc12 ?
Result string: 4

Query string: Quick one: viability at 1.667 µM of CCCc1nc(-c2ccc(Cl)cc2)nc2cc(C(=O)NCc3nc4ccncc4[nH]3)ccc12 ?
Result string: 1

Query string: Quick one: viability at 1.667 µM of CCOc1cc(-c2ccc(F)cc2)nc2cc(C(=O)NCc3nc4cnccc4[nH]3)ccc12 ?
Result string: 1

Query string: Quick one: viability at 1.667 µM of CCOc1cc(C2CC2)nc2cc(C(=O)NCCCc3ncc[nH]3)ccc12 ?
Result string: 1

Query string: Quick one: viability at 1.667 µM of CCCc1nc(-c2ccc(Cl)cc2)nc2cc(C(=O)NCC3CC3c3ncc[nH]3)ccc12 (racemic) ?
Result string: 2

Query string: Quick one: viability at 1.667 µM of CCOc1cc(-c2ccnc(C)c2)nc2cc(C(=O)NCCCc3cnn[nH]3)ccc12 ?
Result string: 2

Query string: Quick one: viability at 1.667 µM of CCOc1cc(-c2ccc(F)cc2)nc2cc(C(=O)NCCCc3cncnc3)ccc12 ?
Result string: 5

Query string: Quick one: viability at 1.667 µM of CCOc1cc(-c2ccnc(C)c2)nc2cc(C(=O)NCc3ccn4ncnc4c3)ccc12 ?
Result string: 2

Query string: Quick one: viability at 1.667 µM of O=C(NCCCc1ncc[nH]1)c1ccc2c(OCCO)cc(-c3ccc(F)cc3)nc2c1 ?
Result string: 2

Query string: Quick one: viability at 1.667 µM of Cc1cc(-c2cc(-c3ccc(F)cc3)c3ccc(C(=O)NCCCc4nnc[nH]4)cc3n2)ccn1 ?
Result string: 5

Query string: Quick one: viability at 1.667 µM of CCOc1cc(-c2ccc(Cl)s2)nc2cc(C(=O)NCCCc3nnc[nH]3)ccc12 ?
Result string: 2

Query string: Quick one: viability at 1.667 µM of O=C(NCCCc1ncc[nH]1)c1ccc2c(Cc3ccccc3)nc(-c3ccc(Cl)cc3)nc2c1 ?
Result string: 4

Query string: Quick one: viability at 1.667 µM of CCOc1cc(-c2ccc(Cl)s2)nc2cc(C(=O)NCc3nc4cnccc4[nH]3)ccc12 ?
Result string: 2

----------
pIC50: −log10 of the molar value.
Target or system hNAMPT protein (Homo sapiens (Human)): recorded pIC50 listed per item.

Query string: # get_value(readout= pIC50, system= hNAMPT protein (Homo sapiens (Human))) for Cc1cc(-c2cc(-c3ccc(F)cc3)c3ccc(C(=O)NCCCc4nnc[nH]4)cc3n2)ccn1 [Compound I-157]
Result string: 7.00 to 7.30

Query string: # get_value(readout= pIC50, system= hNAMPT protein (Homo sapiens (Human))) for CCOc1cc(-c2ccc(C)nc2)nc2cc(C(=O)NCc3nc4cnccc4[nH]3)ccc12 [Compound I-167]
Result string: > 8.00

Query string: # get_value(readout= pIC50, system= hNAMPT protein (Homo sapiens (Human))) for CCOc1cc(-c2ccc(F)cc2)nc2cc(C(=O)NCc3nc4cnccc4n3C)ccc12 [Compound I-178]
Result string: > 8.00

Query string: # get_value(readout= pIC50, system= hNAMPT protein (Homo sapiens (Human))) for COCCOc1cc(-c2ccc(F)cc2)nc2cc(C(=O)NCCCc3cn[nH]n3)ccc12 [Compound I-109]
Result string: 7.30 to 8.00

Query string: # get_value(readout= pIC50, system= hNAMPT protein (Homo sapiens (Human))) for CCOc1cc(-c2cc(OC)ncc2F)nc2cc(C(=O)NCCCc3nnc[nH]3)ccc12 [Compound I-225]
Result string: 7.30 to 8.00

Query string: # get_value(readout= pIC50, system= hNAMPT protein (Homo sapiens (Human))) for CCOc1cc(-c2cc(F)cnc2OC)nc2cc(C(=O)NCCCc3nnc[nH]3)ccc12 [Compound I-161]
Result string: 7.30 to 8.00

Query string: # get_value(readout= pIC50, system= hNAMPT protein (Homo sapiens (Human))) for CCNc1nc(-c2ccc(F)cc2)nc2cc(C(=O)NCCCc3ncc[nH]3)ccc12 [Compound I-41]
Result string: < 7.00

Query string: # get_value(readout= pIC50, system= hNAMPT protein (Homo sapiens (Human))) for CCOc1cc(-c2ccc(OC)nc2)nc2cc(C(=O)NCCc3[nH]nnc3C)ccc12 [Compound I-88]
Result string: 7.30 to 8.00

Query string: # get_value(readout= pIC50, system= hNAMPT protein (Homo sapiens (Human))) for CCOc1cc(-c2cc(Cl)ccc2F)nc2cc(C(=O)NCCCc3ncc[nH]3)ccc12 [Compound I-11]
Result string: > 8.00

Query string: # get_value(readout= pIC50, system= hNAMPT protein (Homo sapiens (Human))) for CCOc1cc(-c2ccc(C)nc2OC)nc2cc(C(=O)NCCCc3nc[nH]n3)ccc12 [Compound I-183]
Result string: 7.00 to 7.30

Query string: # get_value(readout= pIC50, system= hNAMPT protein (Homo sapiens (Human))) for CCOc1cc(-c2ccc(OC)nc2C)nc2cc(C(=O)NCCCc3nnc[nH]3)ccc12 [Compound I-138]
Result string: 7.00 to 7.30

Query string: # get_value(readout= pIC50, system= hNAMPT protein (Homo sapiens (Human))) for CCOc1cc(-c2ccncc2OC)nc2cc(C(=O)NCCCc3nnc[nH]3)ccc12 [Compound I-139]
Result string: 7.30 to 8.00

Query string: # get_value(readout= pIC50, system= hNAMPT protein (Homo sapiens (Human))) for CCOc1nc(-c2ccc(F)cc2)nc2cc(C(=O)NCc3ccc4nccn4c3)ccc12 [Compound I-34]
Result string: > 8.00

Query string: # get_value(readout= pIC50, system= hNAMPT protein (Homo sapiens (Human))) for COCc1nc(-c2ccc(Cl)cc2)nc2cc(C(=O)NCCCc3ncc[nH]3)ccc12 [Compound I-25]
Result string: > 8.00

Query string: # get_value(readout= pIC50, system= hNAMPT protein (Homo sapiens (Human))) for CCCc1nc(-c2ccc(Cl)cc2)nc2cc(C(=O)NCCCc3nnc[nH]3)ccc12 [Compound I-7]
Result string: 7.30 to 8.00

Query string: # get_value(readout= pIC50, system= hNAMPT protein (Homo sapiens (Human))) for CCCc1nc(-c2ccc(Cl)cc2)nc2cc(C(=O)NCC3CC3c3ncc[nH]3)ccc12 (racemic) [Compound I-59]
Result string: 7.00 to 7.30

Query string: # get_value(readout= pIC50, system= hNAMPT protein (Homo sapiens (Human))) for CCOc1cc(-c2cc(OC)ncc2F)nc2cc(C(=O)NCCc3cnn[nH]3)ccc12 [Compound I-189]
Result string: < 7.00

Query string: # get_value(readout= pIC50, system= hNAMPT protein (Homo sapiens (Human))) for CCOc1cc(-c2ccc(C)nc2)nc2cc(C(=O)NCCCc3nnc[nH]3)ccc12 [Compound I-173]
Result string: 7.30 to 8.00

Query string: # get_value(readout= pIC50, system= hNAMPT protein (Homo sapiens (Human))) for CCOc1cc(-c2ccnc(C)c2)nc2cc(C(=O)NCCCc3cnn[nH]3)ccc12 [Compound I-117]
Result string: > 8.00

Query string: # get_value(readout= pIC50, system= hNAMPT protein (Homo sapiens (Human))) for CCOc1cc(C2CC2)nc2cc(C(=O)NCCCc3ncc[nH]3)ccc12 [Compound I-58]
Result string: 7.30 to 8.00

Query string: # get_value(readout= pIC50, system= hNAMPT protein (Homo sapiens (Human))) for CC(C)Cc1nc(-c2ccc(Cl)cc2)nc2cc(C(=O)NCCCc3ncc[nH]3)ccc12 [Compound I-21]
Result string: 7.30 to 8.00

Query string: # get_value(readout= pIC50, system= hNAMPT protein (Homo sapiens (Human))) for CCOc1cc(-c2ccc(F)c(F)c2)nc2cc(C(=O)NCCCc3ncc[nH]3)ccc12 [Compound I-52]
Result string: > 8.00

Query string: # get_value(readout= pIC50, system= hNAMPT protein (Homo sapiens (Human))) for CCOc1cc(-c2ccc(F)cc2OC)nc2cc(C(=O)NCCc3c[nH]nc3C)ccc12 [Compound I-129]
Result string: 7.30 to 8.00

Query string: # get_value(readout= pIC50, system= hNAMPT protein (Homo sapiens (Human))) for CCOc1cc(-c2ccc(F)cc2OC)nc2cc(C(=O)NCCc3ncn[nH]3)ccc12 [Compound I-170]
Result string: 7.00 to 7.30

Query string: # get_value(readout= pIC50, system= hNAMPT protein (Homo sapiens (Human))) for CCOc1cc(-c2ccc(=O)n(C)c2)nc2cc(C(=O)NCCCc3[nH]nnc3C)ccc12 [Compound I-97]
Result string: 7.30 to 8.00

Query string: # get_value(readout= pIC50, system= hNAMPT protein (Homo sapiens (Human))) for CCOc1cc(-c2cn[nH]c2)nc2cc(C(=O)NCCCc3nnc[nH]3)ccc12 [Compound I-205]
Result string: < 7.00

Query string: # get_value(readout= pIC50, system= hNAMPT protein (Homo sapiens (Human))) for CCOc1cc(-c2cccnc2OC)nc2cc(C(=O)NCCCc3cnn[nH]3)ccc12 [Compound I-105]
Result string: 7.30 to 8.00

Query string: # get_value(readout= pIC50, system= hNAMPT protein (Homo sapiens (Human))) for CCOc1cc(-c2cc(F)ccc2OC)nc2cc(C(=O)NCCCc3nnc[nH]3)ccc12 [Compound I-199]
Result string: 7.30 to 8.00

Query string: # get_value(readout= pIC50, system= hNAMPT protein (Homo sapiens (Human))) for CCOc1cc(-c2ccc(=O)n(C)c2)nc2cc(C(=O)NCCCc3cc[nH]n3)ccc12 [Compound I-123]
Result string: 7.30 to 8.00

Query string: # get_value(readout= pIC50, system= hNAMPT protein (Homo sapiens (Human))) for CCOc1cc(-c2ccc(F)cc2)nc2cc(C(=O)NCCc3ccn[nH]3)ccc12 [Compound I-46]
Result string: 7.30 to 8.00

Query string: # get_value(readout= pIC50, system= hNAMPT protein (Homo sapiens (Human))) for CCOc1cc(-c2ccc(C)s2)nc2cc(C(=O)NCCCc3nnc[nH]3)ccc12 [Compound I-223]
Result string: 7.30 to 8.00

Query string: # get_value(readout= pIC50, system= hNAMPT protein (Homo sapiens (Human))) for CCOc1cc(-c2ccnc(C)c2)nc2cc(C(=O)NCCc3nnc[nH]3)ccc12 [Compound I-172]
Result string: < 7.00
